biological target: CYP2C9 (Homo sapiens, UniProt P11712); experiment: CYP2C9 % inhibition; type: in vitro ADME
Sequence (P11712 whole entry, species assumed): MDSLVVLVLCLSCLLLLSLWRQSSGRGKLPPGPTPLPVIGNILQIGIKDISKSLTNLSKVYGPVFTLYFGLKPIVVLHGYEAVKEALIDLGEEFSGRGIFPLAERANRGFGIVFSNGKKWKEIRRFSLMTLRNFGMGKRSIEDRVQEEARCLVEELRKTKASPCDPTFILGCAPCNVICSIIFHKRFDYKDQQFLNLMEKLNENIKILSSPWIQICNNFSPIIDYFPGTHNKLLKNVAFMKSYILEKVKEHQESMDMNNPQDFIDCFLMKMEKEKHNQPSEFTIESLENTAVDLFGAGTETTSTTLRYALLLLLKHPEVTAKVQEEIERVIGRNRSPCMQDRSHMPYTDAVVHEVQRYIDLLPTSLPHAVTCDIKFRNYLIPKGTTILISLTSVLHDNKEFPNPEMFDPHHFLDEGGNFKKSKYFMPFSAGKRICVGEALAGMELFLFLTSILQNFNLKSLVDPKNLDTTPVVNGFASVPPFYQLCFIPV
measure: CYP2C9 % inhibition (%)

- O=C(NCCCCN1CCCCC1)Nc1ccc(-c2ccccc2)cc1: 2
- O=C(NCCCCN1CCCCC1)Nc1ccc(-c2cccc(F)c2)nc1: 0
- O=C(NCCCCN1CCCCC1)Nc1ccc(-c2cccs2)nc1: 2
- O=C(NCCCCN1CCCCC1)Nc1ccc(-c2ccc3c(c2)OCO3)cc1: 0

----------
biological target: rat-alpha7-nAChR (Rattus norvegicus); construct: expressed in transfected cells; assay: functional FLIPR assay, alpha7 nAChR stably expressed in GH4C1 cells; type: cell-based; conditions: GH4C1 cell line expressing the alpha7 nAChR, concentration-response curves; read-out: Alpha 7 EC50
Sequence (Q05941 23-502): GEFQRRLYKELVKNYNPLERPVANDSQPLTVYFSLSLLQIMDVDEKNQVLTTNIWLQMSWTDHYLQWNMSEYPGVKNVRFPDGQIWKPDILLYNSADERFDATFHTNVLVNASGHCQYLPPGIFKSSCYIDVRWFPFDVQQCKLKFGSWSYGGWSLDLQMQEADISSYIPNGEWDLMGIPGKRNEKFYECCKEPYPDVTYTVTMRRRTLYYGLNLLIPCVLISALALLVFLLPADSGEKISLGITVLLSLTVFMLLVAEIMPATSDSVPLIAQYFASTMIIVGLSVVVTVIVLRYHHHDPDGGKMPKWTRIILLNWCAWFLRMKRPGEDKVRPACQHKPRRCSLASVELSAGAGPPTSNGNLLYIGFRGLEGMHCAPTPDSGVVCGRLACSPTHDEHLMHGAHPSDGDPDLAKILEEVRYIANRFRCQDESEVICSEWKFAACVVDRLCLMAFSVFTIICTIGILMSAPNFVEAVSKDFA
pEC50: −log10 of the molar value.
measure: pEC50

- COc1ccccc1-c1ccc(NC(=O)NCCCCN2CCCCC2)cc1: 6.77
- O=C(NCCCC[N+]1([O-])CCCCC1)Nc1ccc(-c2ccc(F)cc2)nc1: 6.34
- O=C(NCCCCN1CCCCC1)Nc1ccc(-c2ccc(F)cc2)cc1: 6.66
- Cn1cc(-c2ccc(NC(=O)NCCCCN3CCCCC3)cn2)cn1: 6.35
- O=C(NCCCCN1CCCCC1)Nc1ccc(-c2ccc3c(c2)OCO3)cc1: 7.00
- COc1ccc(F)c(-c2ccc(NC(=O)NCCCCN3CCCCC3)cc2)c1: 7.00

----------
target: CYP2C9 (Homo sapiens, UniProt P11712); test: CYP2C9 % inhibition; format: in vitro ADME
Measured CYP2C9 % inhibition of individual entries
measure: CYP2C9 % inhibition (%)

• COc1ccccc1-c1ccc(NC(=O)NCCCCN2CCCCC2)cc1 = −2
• O=C(NCCCCN1CCCCC1)Nc1ccc(-c2cccnc2)cc1 = −22
• O=C(NCCCCN1CCCCC1)Nc1ccc(-c2cccc(F)c2)cc1 = −12
• COc1ccc(F)c(-c2ccc(NC(=O)NCCCCN3CCCCC3)cn2)c1 = 10
• O=C(NCCCCN1CCCCC1)Nc1ccc(-c2ccncc2)cc1 = 6
• COc1ccc(F)c(-c2ccc(NC(=O)NCCCCN3CCCCC3)cc2)c1 = −26
• O=C(NCCCCN1CCCCC1)Nc1ccc(-c2ccccc2)nc1 = −4
• Cn1cc(-c2ccc(NC(=O)NCCCCN3CCCCC3)cc2)cn1 = 9
• Cn1cc(-c2ccc(NC(=O)NCCCCN3CCCCC3)cn2)cn1 = 3
• O=C(NCCCCN1CCCCC1)Nc1ccc(-c2ccncc2)nc1 = 1
• COc1ccccc1-c1ccc(NC(=O)NCCCCN2CCCCC2)cn1 = 6
• COc1ccc(-c2ccc(NC(=O)NCCCCN3CCCCC3)cn2)cc1 = −15
• O=C(NCCCCN1CCCCC1)Nc1ccc(-c2cccs2)cc1 = −5
• O=C(NCCCCN1CCCCC1)Nc1ccc(-c2cccnc2)nc1 = −3
• COc1ccc(-c2ccc(NC(=O)NCCCCN3CCCCC3)cc2)cc1 = −14
• O=C(NCCCCN1CCCCC1)Nc1ccc(-c2ccc(F)nc2)nc1 = −10
• O=C(NCCCCN1CCCCC1)Nc1ccc(-c2ccc(F)nc2)cc1 = −18
• O=C(NCCCCN1CCCCC1)Nc1ccc(-c2ccccc2F)nc1 = −10
• O=C(NCCCCN1CCCCC1)Nc1ccc(-c2ccc(F)cc2)cc1 = −16
• O=C(NCCCCN1CCCCC1)Nc1ccc(-c2ccccc2F)cc1 = −1
• COc1ncccc1-c1ccc(NC(=O)NCCCCN2CCCCC2)cn1 [drawing 63] = −36
• COc1ncccc1-c1ccc(NC(=O)NCCCCN2CCCCC2)cn1 [drawing 62] = −12
• O=C(NCCCCN1CCCCC1)Nc1ccc(-c2ccc3c(c2)OCO3)nc1 = 6

Measured values drawn from patent US20100016343A1 for this set.
